The measurements presented in this section are drawn from PubChem BioAssay.

Assay protocol: growth suppression of PTEN-deleted HCT116, pilot screen, cell-based, HCT116 clonal line, CellTiter-Glo (AID 824);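 further: 0% = 20 µM Hyamine control and 100% = vehicle cell control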
Stated conditions: 60 h, at 10 µM, stronger effect = lower value
Results filed as inconclusive are left out.
Catalogue of molecules with associated viability
Express your answer in %, writing the number without its unit.

Here are 3 molecules together with their reported answers.
* CCCCNC(=O)c1cc(-c2ccc(OC)c(OC)c2)on1 | 96.9
* CCC(CC)C(=O)Nc1ccccc1NC(C)=O | 98
* COC(=O)c1sc2nc3c(cc2c1N)COC(C)(C)C3 | 94.1

GET /value?item= Cc1cccc(NC(=O)C2C(C(=O)O)C3C=CC2C32CC2)c1C (centres undefined) &field=viability returns 93.5

O=C1C2C3C=CC(C3)C2C(=O)N1CCN1CCN(S(=O)(=O)c2ccc3ccccc3c2)CC1 (centres undefined) has a reported viability of 83.5

According to the records, this molecule CCCC(C)NC(=O)c1ccc(F)cc1 (centres undefined) displays viability of 99.9

// field: viability; key: `CCCCCn1c(CCNC(=O)c2cccs2)nc2ccccc21` ; value = 86.4

Please fill in: viability reported for `COC(=O)c1ccccc1NC(=O)c1c(O)c2c([nH]c1=O)CCCC2` = 93

# molecule `O=C(NC1CCCCCC1)C1CCN(C(=O)Cc2ccccc2)CC1` ; its viability = 94.3

Recorded viability (molecule CCCCC1CCC(c2nc(-c3cccnc3)no2)CC1 (centres undefined) ): 88

// viability lookup, molecule = CCCCC1CC(CSc2ncn[nH]2)OC1=O (centres undefined) , result: 98

Item: `CCOc1c(Br)cc(C(N)=O)cc1OC` | viability: 101

Field viability (entry CCN(CC)CCCN1C(=O)C(O)=C(C(C)=O)C1c1ccc(OC)cc1OC (centres undefined) ) reads 92.4

Entry under test: CC(Cc1ccccc1)N/C=C1/CC(=O)NC1=O (centres undefined) . Its viability was 97

Field viability (entry Cc1noc(/C=C/N(C)C)c1S(=O)(=O)N1CCCC(C(=O)Nc2ccc3c(c2)OCO3)C1 (centres undefined) ) reads 89.7

* * *

Assay protocol: inhibitors of the yeast RAM network, pilot screen, dse1pr::URA3 reporter, 5-FOA selection (AID 869);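 further: 0% = DMSO wells with no growth and 100% = 10 µM 1-NA-PP1 with full growth; RAM network block rescues cells from 5-FOA so hits raise OD615 growth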
Stated conditions: S. cerevisiae dse1pr::URA3 5-FOA growth, OD615, 2 d; at 10 µM; stronger effect = higher value; strain carries analog-sensitive mutant Cbk1 kinase
Endpoint name: inhibition (%)
Field format: number, assumed %, no unit text.

Reference set (5 entries):
- CC(C)C(NC(=O)C12CC3CC(CC(C3)C1)C2)C(=O)NC1=NCCS1 (stereo unspecified): 2.41
- CCOC(=O)Cc1csc(NC(=O)CN2C(=O)c3ccccc3S2(=O)=O)n1: 3.63
- CCOc1ccccc1N1CCN(C(=O)c2cc(C)oc2C)CC1: 0.04
- Cc1ccc(S(=O)(=O)N(CC(=O)N2CCOCC2)C2CCCCC2)cc1: 1.29
- CC1(C)CC(=O)C(C=Nc2ccccc2)=C(O)C1: 2.92

Field: next molecule
Short answer for `Cc1ccnc(SCCn2c(N3CCCCC3)nc3c2c(=O)[nH]c(=O)n3C)n1` : inhibition was 1.52

* * *

Assay protocol: reversal of MRP1-mediated doxorubicin resistance, pilot screen, H69AR cells, doxorubicin co-treatment (AID 601)
Stated conditions: H69AR cells + 2 uM doxorubicin, CellTiter-Glo, 72 h; at 10 µM; stronger effect = higher value
Endpoint name: differential viability (reversal) (%)
API: value field is a number in %; no unit string.

Check out these entries, answers already filled in.
- CCOC(=O)c1ccc(NC(=O)CSc2ncccn2)cc1: 2.45
- O=c1ccc(S(=O)(=O)N2CCC(Cc3ccccc3)CC2)c[nH]1: 8.51
- Cc1[nH]c(=O)[nH]c(=O)c1S(=O)(=O)N1c2ccc(F)cc2CCC1C (stereo not drawn): -3.9
- CCCCCC(=O)N1CC2(CC)CN(C(=O)CCCCC)CC(CC)(C1)C2=O: -6.35

get_value(item= `COc1ccccc1N1CCN(C(=O)CCNS(=O)(=O)c2ccc3c(c2)CCC(=O)N3)CC1` , readout=differential viability (reversal)) returns -0.605

In plain terms, `CCCn1c(C)cc(C(=O)COc2ncnc3sccc23)c1C` has a documented differential viability (reversal) of -18.6

The reported differential viability (reversal) of the compound `COc1ccc(NS(=O)(=O)c2c(C)[nH]c(=O)[nH]c2=O)c(OC)c1` was 1.25

Please fill in: differential viability (reversal) reported for CCOC(=O)c1cc(C)sc1N1C(=O)C2C3C=CC(C3)C2C1=O (stereo not drawn) = 5.84

* * *

Assay protocol: reducers of endogenous Her2 protein level, primary screen, SKBR3 breast tumor cells, AlphaScreen, ATP viability (AID 461);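 further: percent of carrier control wells set as 100% viability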
Stated conditions: 18-24 h, measured here: SKBR3 viability, ATP luminescence, at 10 µM
Endpoint name: viability
Number first, unit second: that is the form wanted.

The cases that follow already have their viability on record.
* OC(CNCC1COc2ccccc2O1)COCc1cccs1 (stereo unspecified) | 98%
* CCCCc1c(O)nc(SCCN(C)C)n(-c2ccccc2)c1=O | 93.5%
* CC(C)C[C@H](NC(=O)[C@@H]1O[C@H]1C(=O)O)C(=O)NCCCCN=C(N)N | 100%
* CN(C)c1ccc(CNCCC2(O)CCOC(C)(C)C2)cc1 (stereo unspecified) | 89%
* O=C(CCN1C(=O)C2C3C=CC(C3)C2C1=O)NC1CCCc2ccccc21 (stereo unspecified) | 81%
* CCOc1ccccc1NC(=O)NC1CCN(CC(=O)Nc2ccc3c(c2)OCCO3)CC1 | 119%
* CCOc1ccc2[nH]c(=O)c(C(c3nnnn3Cc3ccco3)N3CCC(C)CC3)cc2c1 (stereo unspecified) | 80.5%
* COC(=O)CN(c1nc(C)c(Cl)c(OC)n1)S(=O)(=O)c1ccc(C)cc1 | 117%

// field: viability; key: `CN(C)C=Nc1nonc1N` ; value = 110%

The reported value for Cc1cnc(-c2nnc(N(C)C(=O)C3CCOC3)s2)cn1 (stereo unspecified) in terms of viability is 90.5%

The value of viability measured for the compound CCN(CC)CC(C)CNC(=O)CC(C(=O)N1CCc2ccccc21)n1ccnc1 (stereo unspecified) turned out to be 88.5%

* * *

Assay protocol: RAM signaling pathway blockade in yeast – S. cerevisiae, Pdr1DBD-CYC8 efflux-inhibited sensitized strain, primary screen (AID 1298);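 further: 0% = DMSO untreated cells without growth and 100% = 10 µM 1-NA-PP1 full growth; higher means more yeast growth rescued from 5-FOA killing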
Stated conditions: S. cerevisiae cbk1-as DSE1-URA3 strain, 5-FOA growth OD615, 2 d; at 50 µM; stronger effect = higher value
Each entry below lists one item and its recorded RAM network inhibition value.
// units = %; emit number, no label

Consider the worked cases shown below.
• CCOC(=O)C1CCCN(C(=O)C2CCN(c3nnc(-n4cccc4)s3)CC2)C1 (stereo not drawn) = 2.55
• O=C(NCc1ccc2c(c1)OCO2)C1CCN(c2ccc(S(=O)(=O)N3CCCC3)cc2)CC1 = 4.72
• COCCOC(=O)C1=C(C)NC2=C(C(=O)CC(C)(C)C2)C1c1ccc2c(c1)OCO2 (stereo not drawn) = 2.6
• Nc1c(S(=O)(=O)c2ccccc2)c2nc3ccccc3nc2n1Cc1ccco1 = 7.51
• Cc1c(C(=O)NCc2ccco2)sc2nc(-c3ccccc3)cn12 = 2.7
• CC1CCCCN1c1nnc(NC(=O)Cn2c(=O)oc3ccccc32)s1 (stereo not drawn) = 4.48
• CC(C)Sc1nc(SCC(=O)NCc2ccco2)c2c3c(sc2n1)COC(C)(C)C3 = 11.6
• Cc1ccc(S(=O)(=O)CNC(=O)c2ccccc2)cc1 = 0.51

Sure, the documented RAM network inhibition for `O=C(NCCCn1ccnc1)c1cccc(S(=O)(=O)Nc2ccccc2F)c1` is 5.99

Reported RAM network inhibition ( `CC(=O)Nc1cc(NC(C)=O)c(CC(C)C)s1` ) = 2.34

Entry CC(C)N(CCCNC(=O)CC1Oc2ccccc2NC1=O)Cc1ccccc1 (stereo not drawn) — recorded RAM network inhibition = 3.18

* * *

Assay protocol: RAM signaling pathway blockade in yeast – S. cerevisiae, Pdr1DBD-CYC8 efflux-inhibited sensitized strain, primary screen (AID 1298);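 further: 0% = DMSO untreated cells without growth and 100% = 10 µM 1-NA-PP1 full growth; higher means more yeast growth rescued from 5-FOA killing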
Stated conditions: S. cerevisiae cbk1-as DSE1-URA3 strain, 5-FOA growth OD615, 2 d; at 50 µM; stronger effect = higher value
Endpoint name: RAM network inhibition (%)
Supply the numeric figure in %, leaving out any unit text.

* O=C(Cn1nc(Cc2cccnc2)c2ccccc2c1=O)NCC1COc2ccccc2O1 (stereo not given) | 0.96
* COc1ccccc1-n1c(SC)nc(O)cc1=O | 4.2
* COc1cccc(CNC(=O)C2CCN(S(=O)(=O)c3cccc4cccnc34)CC2)c1 | 3.03
* COc1ccc(OC)c(NC(=O)C2CCCN(S(=O)(=O)c3cccc4cccnc34)C2)c1 (stereo not given) | 6.71

Turning to the following compound.
compound `Cc1cc(C)n(-c2nnc(C)n2/N=C/c2cc(Br)ccc2OCc2ccccc2)n1` , RAM network inhibition observed: -1.07
